System: K4 kissing-loop RNA reporter;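 further: bound reporter read as fluorescence of individual clusters on recovered sequencing chips by microscopy, with normalized cluster intensities fitted with a binding model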
Assay: apparent KD of K4 kissing-loop reporter; higher = weaker reporter binding
Conditions: Eterna round: R107; input ligand: arginine 13.2 mM
measured-parameter: apparent KD of K4 kissing-loop reporter
State the result as a value with its unit after it.

Worked set:
primary-sequence: UGGUAUAGUGAUGUUAUACCACUACCAGAUACCAGUGUAACAUUACGCCCUUGGCAGCUGAUCAGGGAACAUAUGGAGACAUAUG [Theo A Mod astro A#6]
result: 261 nM

primary-sequence: UGUGUUUACCUGACCCAGUGAUGUUGGGAAGGAGCGUGCGAAAGCACAGGUAGGUCGCUCAACCUAAAGUCAGGUGAGCACUAAA [#SwitchBubble 9 #K4Early]
result: 277 nM

primary-sequence: UGUAUGGACUGAAGGAGCGCUAGGUAUGUGAGUGAUGUUCAUAUAAAUGUAUAAAGGGUUUGGCAGGUAGGUCGCAGUCCAUACU [KL-SSArg B6]
result: 122 nM

primary-sequence: UGUCAUUGGUCUGAUACCAGCUGAUCGGAAACGAUCUUGCUGGAGUGAUGUUCCAGGAAAAGCCCUUGGCAGCAGACCGAUGACU [TheoBS 10 #SwitchBubble #StaticStem]
result: 445 nM

Identify measured apparent KD of K4 kissing-loop reporter corresponding to CGCAAGCAGCCAGUGAUGUUGGCCGCCUUGCGAGGACCGGUACGGCCGCCACUCGAAGGCGGCUACUGGUAAACCGUCUAACGGA [Oronorenma]
71.7 nM

Provide measured apparent KD of K4 kissing-loop reporter value, entry: GGCAGUGAUGUUGCCAGUGGCAGAUUGGAAGGAGCGUGGUGAGACACAGGUAGGUCGCUAAUUGAAAUUGCUGUCACUAAAAUGC [whbob_Ex_Arginine_A_2t130]
314 nM

Answer with the recorded apparent KD of K4 kissing-loop reporter of UGUAUGUGAUUUGAUACCAGACCAGGUGGAGGAAUCUGAGUGAUGUUCAGGUAGGUUCUGGUCCCUUGGCAGCAAAUCGCAUACU [KL-SSTheoB19] only.
133 nM

Indicate the recorded apparent KD of K4 kissing-loop reporter value for this sequence: UAUCUUUGCUGAAGGAGCGAGCAUGUUGGAGUGAUGUUCCGUGCGAGUGAUGUUCGCAUAGCUCAGGUAGGUCGCAGUGGGAGGA [KL-SSArg B29]
94.7 nM

Note down apparent KD of K4 kissing-loop reporter recorded for GGGUGGGUGCGAGGAUAUGGAGUGAUGUUCCAAAAGAAAAGAAGAGAAGAGAAAGAGAGAAAGAAACCAGAAGGCGCGUCCGUCC
123 nM

Quick one: give measured apparent KD of K4 kissing-loop reporter for AAAGUUGAUGAGUUGGGUAUGUGUUCCGAAGGAGCGAGAAUUAUCUCAGGUAGGUCGCGGAACAUGAGUGAUGUUCAUGUAUAAA [KL-XArg-A7 #analogue]
436 nM

Tell me its apparent KD of K4 kissing-loop reporter given AAUAAAAUCACGGCCGCCACUGAUUAGCAUAUUAGGAGUGAUGUUUCUAUGACUAUAUAAUUGAACAGGACCGGGUGAAUAUUUA [#20 K4 Tryptophan B Exclusion] as the entry.
294 nM

Identify measured apparent KD of K4 kissing-loop reporter corresponding to UGUUAUGGGUGAGGAUAUGCUGACGAUGCGGGUGCGAGUGAUGUUGGUGUGGCUGGUGUCGUUUGUGCAGAAGGCACGCUCGUGG [BDazzled]
522 nM

Source: the supplement of paper PMC9170038
